- testMethodNotes: Plasma PK of milled TAK-228 in TAK-228+P and TAK-228 QW arms, LC-MS/MS
- Format: in vivo, human
- assaySetup: human, plasma, oral, 20 mg
measurementType: Vd/F (L)

1. CC(C)n1nc(-c2ccc3oc(N)nc3c2)c2c(N)ncnc21 | 125

* * *

- testMethodNotes: Plasma PK of TAK-228 4 mg in single-agent QD PK run-in
- Type: in vivo, human
- assaySetup: human, plasma, oral, 4 mg, Tmax, median (range), 4 mg milled, fed (high-fat breakfast)
measurementType: Tmax

1) CC(C)n1nc(-c2ccc3oc(N)nc3c2)c2c(N)ncnc21 | 6 h

* * *

- testMethodNotes: Plasma PK of milled TAK-228 in TAK-228+P and TAK-228 QW arms, LC-MS/MS
- Format: in vivo, human
- assaySetup: human, plasma, oral, 30 mg
measurementType: Tmax (h)

1. CC(C)n1nc(-c2ccc3oc(N)nc3c2)c2c(N)ncnc21 | 1

* * *

- testMethodNotes: Plasma PK of TAK-228 4 mg in single-agent QD PK run-in
- Type: in vivo, human
- assaySetup: human, plasma, oral, 4 mg, Cmax, geometric mean (%CV), 4 mg unmilled, fasted
measurementType: Cmax

1) CC(C)n1nc(-c2ccc3oc(N)nc3c2)c2c(N)ncnc21 [TAK-228, Sapanisertib] | 34 ng/mL

* * *

- testMethodNotes: Plasma PK of TAK-228 4 mg in single-agent QD PK run-in
- Type: in vivo, human
- assaySetup: human, plasma, oral, 4 mg, Cmax, geometric mean (%CV), 4 mg milled, fed (high-fat breakfast)
measurementType: Cmax (ng/mL)

1. CC(C)n1nc(-c2ccc3oc(N)nc3c2)c2c(N)ncnc21 | 21.6

* * *

- testMethodNotes: Plasma PK of milled TAK-228 in TAK-228+P and TAK-228 QW arms, LC-MS/MS
- Type: in vivo, human
- assaySetup: human, plasma, oral, 4 mg
measurementType: Tmax (h)

1) CC(C)n1nc(-c2ccc3oc(N)nc3c2)c2c(N)ncnc21 | 2.2

* * *

- testMethodNotes: Plasma PK of milled TAK-228 in TAK-228+P and TAK-228 QW arms, LC-MS/MS
- Assay type: in vivo, human
- assaySetup: human, plasma, oral, 20 mg
measurementType: half-life (h)

1) CC(C)n1nc(-c2ccc3oc(N)nc3c2)c2c(N)ncnc21 | 6.1

* * *

- testMethodNotes: Plasma PK of milled TAK-228 in TAK-228+P and TAK-228 QW arms, LC-MS/MS
- Assay type: in vivo, human
- assaySetup: human, plasma, oral, 30 mg
measurementType: AUC(0-t) (ng·h/mL)

1) CC(C)n1nc(-c2ccc3oc(N)nc3c2)c2c(N)ncnc21 [TAK-228, Sapanisertib] | 1530

* * *

- testMethodNotes: Plasma PK of milled TAK-228 in TAK-228+P and TAK-228 QW arms, LC-MS/MS
- Type: in vivo, human
- assaySetup: human, plasma, oral, 30 mg
measurementType: Cmax

1. CC(C)n1nc(-c2ccc3oc(N)nc3c2)c2c(N)ncnc21 [TAK-228, Sapanisertib] | 235 ng/mL

* * *

- testMethodNotes: Plasma PK of TAK-228 4 mg in single-agent QD PK run-in
- Format: in vivo, human
- assaySetup: human, plasma, oral, 4 mg, AUC∞, geometric mean (%CV), 4 mg milled, fed (high-fat breakfast)
measurementType: AUC(0-inf) (ng·h/mL)

1. CC(C)n1nc(-c2ccc3oc(N)nc3c2)c2c(N)ncnc21 | 383
